Data provenance is BigSolDB 2.1.

runParameters: in isopropanol, 283.15 K
propertyLabel: solubility (mole fraction)
Numbers only.

Task item: Please supply the value of reported solubility (mole fraction) for the item Clc1cccnc1Cl
Reply: 0.0401

----------
runParameters: in isobutanol, 308.15 K
propertyLabel: solubility (mole fraction)
Numbers only.

Task item: Give recorded solubility (mole fraction). Clc1cccnc1Cl
Reply: 0.18

----------
runParameters: in acetonitrile, 303.15 K
propertyLabel: solubility (mole fraction)
Answers are plain numbers.

Task item: For the molecule Clc1cccnc1Cl , give its measured solubility (mole fraction) value.
Reply: 0.23

----------
runParameters: in methyl acetate, 303.15 K
propertyLabel: solubility (mole fraction)
Give bare numbers.

Task item: Find the measured solubility (mole fraction) of Clc1cccnc1Cl and report it.
Reply: 0.321

----------
runParameters: in ethyl acetate, 293.15 K
propertyLabel: solubility (mole fraction)
Numbers only.

Task item: Find the measured solubility (mole fraction) of Clc1cccnc1Cl and report it.
Reply: 0.259

----------
runParameters: in methanol, 283.15 K
propertyLabel: solubility (mole fraction)
One number for each entry.

Task item: State, in one line, measured solubility (mole fraction) of Clc1cccnc1Cl
Reply: 0.0259

----------
runParameters: in methanol, 308.15 K
propertyLabel: solubility (mole fraction)
Give bare numbers.

Task item: Read the entry Clc1cccnc1Cl and write its reported solubility (mole fraction).
Reply: 0.129

----------
runParameters: in dichloromethane, 283.15 K
propertyLabel: solubility (mole fraction)
One number for each entry.

Task item: Provide solubility (mole fraction) value for the following compound: Clc1cccnc1Cl
Reply: 0.238

----------
runParameters: in 1,4-dioxane, 298.15 K
propertyLabel: solubility (mole fraction)

Task item: Give the value of solubility (mole fraction) reported for the following: Clc1cccnc1Cl
Reply: 0.332

----------
runParameters: in n-butanol, 278.15 K
propertyLabel: solubility (mole fraction)
Answers are plain numbers.

Task item: Recall and state the measured solubility (mole fraction) for Clc1cccnc1Cl .
Reply: 0.0489

----------
runParameters: in ethanol, 278.15 K
propertyLabel: solubility (mole fraction)
Numbers only.

Task item: Recall and state the measured solubility (mole fraction) for Clc1cccnc1Cl .
Reply: 0.0314

----------
runParameters: in n-hexane, 298.15 K
propertyLabel: solubility (mole fraction)

Task item: Supply recorded solubility (mole fraction) for Clc1cccnc1Cl here.
Reply: 0.0516

----------
runParameters: in methanol, 303.15 K
propertyLabel: solubility (mole fraction)
Answers are plain numbers.

Task item: Indicate the recorded solubility (mole fraction) value for this compound: Clc1cccnc1Cl
Reply: 0.0943

----------
runParameters: in n-propanol, 283.15 K
propertyLabel: solubility (mole fraction)
Numbers only.

Task item: Recall and state the measured solubility (mole fraction) for Clc1cccnc1Cl .
Reply: 0.0479

----------
runParameters: in cyclohexane, 283.15 K
propertyLabel: solubility (mole fraction)
Numbers only.

Task item: Determine its reported solubility (mole fraction): Clc1cccnc1Cl
Reply: 0.0334

----------
runParameters: in ethyl acetate, 283.15 K
propertyLabel: solubility (mole fraction)

Task item: State, in one line, measured solubility (mole fraction) of Clc1cccnc1Cl
Reply: 0.194

----------
runParameters: in 1,4-dioxane, 303.15 K
propertyLabel: solubility (mole fraction)
Answers are plain numbers.

Task item: Provide solubility (mole fraction) value for the following molecule: Clc1cccnc1Cl
Reply: 0.382

----------
runParameters: in dichloromethane, 308.15 K
propertyLabel: solubility (mole fraction)

Task item: Answer with the recorded solubility (mole fraction) for the compound listed here: Clc1cccnc1Cl
Reply: 0.432
